- Test system: Intercellular adhesion molecule (ICAM-1), Integrin alpha-L/beta-2 (Homo sapiens, UniProt P05107+P05362+P20701)
- Sequence (P20701 whole entry): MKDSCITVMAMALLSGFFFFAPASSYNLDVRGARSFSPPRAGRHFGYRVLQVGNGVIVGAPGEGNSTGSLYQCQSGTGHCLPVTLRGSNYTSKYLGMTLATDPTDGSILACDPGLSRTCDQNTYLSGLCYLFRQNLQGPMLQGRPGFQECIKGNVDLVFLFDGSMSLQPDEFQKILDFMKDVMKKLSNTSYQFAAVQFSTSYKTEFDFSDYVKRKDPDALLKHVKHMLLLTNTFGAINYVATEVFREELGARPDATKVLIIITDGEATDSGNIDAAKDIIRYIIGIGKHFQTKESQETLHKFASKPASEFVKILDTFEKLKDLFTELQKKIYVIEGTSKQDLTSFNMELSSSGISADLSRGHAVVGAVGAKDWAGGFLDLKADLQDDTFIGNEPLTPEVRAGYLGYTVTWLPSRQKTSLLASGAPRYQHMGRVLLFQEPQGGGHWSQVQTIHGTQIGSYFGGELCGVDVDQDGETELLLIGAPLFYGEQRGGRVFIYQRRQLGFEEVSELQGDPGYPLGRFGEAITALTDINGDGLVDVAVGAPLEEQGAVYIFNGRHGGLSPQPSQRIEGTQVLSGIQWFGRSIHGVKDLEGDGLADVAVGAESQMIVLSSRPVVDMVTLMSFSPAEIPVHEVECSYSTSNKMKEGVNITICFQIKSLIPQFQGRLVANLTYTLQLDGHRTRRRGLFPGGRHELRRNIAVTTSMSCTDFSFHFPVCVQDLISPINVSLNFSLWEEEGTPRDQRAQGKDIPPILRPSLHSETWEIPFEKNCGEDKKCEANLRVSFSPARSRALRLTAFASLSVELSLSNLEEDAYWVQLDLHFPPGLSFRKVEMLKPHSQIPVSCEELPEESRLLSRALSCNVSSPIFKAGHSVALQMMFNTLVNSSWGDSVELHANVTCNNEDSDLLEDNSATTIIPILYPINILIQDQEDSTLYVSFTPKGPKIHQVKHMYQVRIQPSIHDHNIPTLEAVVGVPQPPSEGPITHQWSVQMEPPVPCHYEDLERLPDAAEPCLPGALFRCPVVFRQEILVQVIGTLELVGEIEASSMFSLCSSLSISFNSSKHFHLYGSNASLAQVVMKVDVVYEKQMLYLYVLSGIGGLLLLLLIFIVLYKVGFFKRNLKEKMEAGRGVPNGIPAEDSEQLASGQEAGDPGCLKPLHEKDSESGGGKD
- Sequence (P05362 whole entry): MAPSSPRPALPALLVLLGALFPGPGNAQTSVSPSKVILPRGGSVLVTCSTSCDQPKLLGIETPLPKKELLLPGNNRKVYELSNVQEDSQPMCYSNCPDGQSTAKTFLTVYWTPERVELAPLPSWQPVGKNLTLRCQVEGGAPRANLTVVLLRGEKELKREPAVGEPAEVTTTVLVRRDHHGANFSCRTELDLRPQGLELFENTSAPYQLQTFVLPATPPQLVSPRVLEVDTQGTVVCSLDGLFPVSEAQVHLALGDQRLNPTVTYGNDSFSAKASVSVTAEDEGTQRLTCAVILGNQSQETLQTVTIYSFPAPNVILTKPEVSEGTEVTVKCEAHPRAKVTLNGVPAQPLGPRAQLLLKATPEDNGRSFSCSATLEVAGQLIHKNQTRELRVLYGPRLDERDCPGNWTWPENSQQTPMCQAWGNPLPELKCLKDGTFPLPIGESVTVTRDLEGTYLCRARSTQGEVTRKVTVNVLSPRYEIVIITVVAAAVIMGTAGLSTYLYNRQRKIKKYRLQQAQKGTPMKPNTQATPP
- Sequence (P05107 whole entry): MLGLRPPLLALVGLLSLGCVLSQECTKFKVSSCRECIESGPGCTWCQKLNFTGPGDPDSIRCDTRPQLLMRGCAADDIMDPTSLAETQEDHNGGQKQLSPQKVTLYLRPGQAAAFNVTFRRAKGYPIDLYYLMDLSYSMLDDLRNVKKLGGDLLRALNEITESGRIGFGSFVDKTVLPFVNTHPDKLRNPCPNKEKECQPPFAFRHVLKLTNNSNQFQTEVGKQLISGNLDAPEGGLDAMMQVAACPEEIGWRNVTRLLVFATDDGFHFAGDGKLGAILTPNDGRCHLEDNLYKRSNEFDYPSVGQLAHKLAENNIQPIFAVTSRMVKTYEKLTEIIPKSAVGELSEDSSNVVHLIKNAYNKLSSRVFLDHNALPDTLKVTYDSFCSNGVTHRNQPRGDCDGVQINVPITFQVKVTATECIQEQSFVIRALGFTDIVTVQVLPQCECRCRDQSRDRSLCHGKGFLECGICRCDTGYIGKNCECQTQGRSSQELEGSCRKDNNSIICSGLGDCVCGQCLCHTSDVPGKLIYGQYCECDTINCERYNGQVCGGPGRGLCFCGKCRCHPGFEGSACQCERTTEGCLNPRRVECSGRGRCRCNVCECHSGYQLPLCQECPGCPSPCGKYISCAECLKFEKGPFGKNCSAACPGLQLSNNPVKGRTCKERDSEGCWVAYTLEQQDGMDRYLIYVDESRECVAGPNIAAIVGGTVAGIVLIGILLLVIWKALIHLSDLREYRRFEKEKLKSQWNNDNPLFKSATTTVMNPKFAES
- Assay method text: Antagonist activity at LFA-1/ICAM-1 in human HuT-78 T-cells assessed as inhibition of cell adhesion after 1 hr by p-nitrophenyl n-acetyl-beta-D-glucosaminide method in presence of 10% human serum
- Type: functional, cell-based, HuT78
Property measured: IC50 (nM)

[1] CNS(=O)(=O)c1cccc(C[C@H](NC(=O)c2c(Cl)cc3c(c2Cl)CCN(C(=O)c2ccc4ccoc4c2)C3)C(=O)O)c1
[2] NS(=O)(=O)c1cccc(C[C@H](NC(=O)c2c(Cl)cc3c(c2Cl)CCN(C(=O)c2ccc4ccoc4c2)C3)C(=O)O)c1
[3] CC(=O)c1cccc(C[C@H](NC(=O)c2c(Cl)cc3c(c2Cl)CCN(C(=O)c2ccc4ccoc4c2)C3)C(=O)O)c1
INPUT: Quick favor: sort the compounds up above by IC50, largest first. Answer by writing out the labels in the requested order.
OUTPUT: 3, 1, 2
